- setupConditions: [M-H]-; instrument: TW; calibrated with phosphatidylcholines (ESI+) and phosphatidylethanolamines (ESI-)
reportedProperty: collision cross section (N2) (Å²)

compound=CCCCCCCCCCCCCCCCCCC(=O)O[C@H](COC(=O)CCCCCCCCCCC)COP(=O)(O)OC[C@@H](O)CO reportedproperty="collision cross section (N2)" quantitativereadout=262
compound=CCCCCCC/C=C\CCCCCCCC(=O)O[C@H](CO/C=C\CCCCCCCCCCCCCC)COP(=O)(O)OC[C@@H](O)CO reportedproperty="collision cross section (N2)" quantitativereadout=265.1
compound=CCCCC/C=C\CCCCCCCC(=O)O[C@H](CO/C=C\CCCCCCCCCCCCCC)COP(=O)(O)OC[C@@H](O)CO reportedproperty="collision cross section (N2)" quantitativereadout=258.5
compound=CCCCCCCC/C=C\CCCCCCCCCC(=O)O[C@H](COC(=O)CCCCCCCCCCCC)COP(=O)(O)OC[C@@H](O)CO reportedproperty="collision cross section (N2)" quantitativereadout=267
compound=CCCCCCCCCCCCCCCCC(=O)OC[C@H](COP(=O)(O)O)OC(=O)CCCCCCCCCCCC reportedproperty="collision cross section (N2)" quantitativereadout=244.9
compound=CCCCCCCCCCCCCCCCCC(=O)OC[C@H](COP(=O)(O)OC[C@@H](O)CO)OC(=O)CCCCCCCCCCC reportedproperty="collision cross section (N2)" quantitativereadout=258.7
compound=CCCCC/C=C\C/C=C\C/C=C\CCCCC(=O)O[C@H](CO/C=C\CCCCCCCCCCCCCC)COP(=O)(O)OC[C@@H](O)CO reportedproperty="collision cross section (N2)" quantitativereadout=264.8
compound=CCCCCCCCCCCCCCCC(=O)O[C@H](COC(=O)CCCCCCCCCCCC)COP(=O)(O)OC[C@@H](O)CO reportedproperty="collision cross section (N2)" quantitativereadout=255.2
compound=CCCC/C=C\CCCCCCCC(=O)OC[C@H](COP(=O)(O)OC[C@@H](O)CO)OC(=O)CCCCCCC/C=C\CCCCCC reportedproperty="collision cross section (N2)" quantitativereadout=255
compound=CCCCCC/C=C\CCCCCCCC(=O)OC[C@H](COP(=O)(O)OC[C@@H](O)CO)OC(=O)CCCCCCCCCCCCCCCCCCC reportedproperty="collision cross section (N2)" quantitativereadout=275.7
compound="CCCCCCCCCCCCCCCCCCC(=O)OC[C@H](COP(=O)(O)O)OC(=O)CCCCCCCCCCCC [PA(32:0)]" reportedproperty="collision cross section (N2)" quantitativereadout=251.1
compound="CC/C=C\\C/C=C\\C/C=C\\CCCCCCCC(=O)OC[C@H](CO[C@@H]1O[C@H](CO)[C@H](O)C(O)C1O)OC(=O)CCCCCCC/C=C\\C/C=C\\C/C=C\\CC (stereo not given in full)" reportedproperty="collision cross section (N2)" quantitativereadout=276.2
compound="CCCCCCCCCCCCCCCCCCC(=O)OC[C@H](COP(=O)(O)O)OC(=O)CCCCCCCCCCCC [PA(16:0/16:0)]" reportedproperty="collision cross section (N2)" quantitativereadout=251.4
compound=CCCC/C=C\CCCCCCCC(=O)OC[C@H](COP(=O)(O)OC[C@@H](O)CO)OC(=O)CCCCCCCCCCCCCCCCCCCC reportedproperty="collision cross section (N2)" quantitativereadout=273.2
compound=CCCCCCCCCCCCCCCCCCC(=O)O[C@H](COC(=O)CCCCCCCCCCCCCCCC)COP(=O)(O)O reportedproperty="collision cross section (N2)" quantitativereadout=264.1
